System: OVCAR-8 ovarian
TEST_METHOD_NOTES: NCI tumour cell line growth inhibition, 48 h
compounds and their reported TGI

[
  {
    "COMPOUND": "Cc1ncc([N+](=O)[O-])n1CCNC(=O)Cn1ccnc1[N+](=O)[O-]",
    "TGI": "> 100 µM"
  },
  {
    "COMPOUND": "COc1cc(/C=C2\\C(=O)N(c3ccc(NC(C)=O)cc3)C(c3ccccc3)S2(=O)=O)cc(OC)c1OC (stereo unspecified)",
    "TGI": "> 100 µM"
  },
  {
    "COMPOUND": "Nc1cc(N)cc(Cc2ccccc2)c1",
    "TGI": "> 100 µM"
  },
  {
    "COMPOUND": "CCOC(=O)C(O)Cc1cnc2ccccc2n1 (stereo unspecified)",
    "TGI": "> 100 µM"
  },
  {
    "COMPOUND": "CCOC(=O)CNC(=O)CNC(=O)CNC(=O)CNNc1c(OCc2ccccc2)c(=O)c1=O",
    "TGI": "> 100 µM"
  },
  {
    "COMPOUND": "CC(=O)C(N=NC1CCC(S(=O)(=O)NB2N=CS2)CC1)C(=O)Nc1ccccc1C (stereo unspecified)",
    "TGI": "34.1 µM"
  },
  {
    "COMPOUND": "CC(C)(C)OC(=O)NCC(=O)N(CCc1ccc(Cl)c(Cl)c1)CCN1CCCC1",
    "TGI": "35.8 µM"
  },
  {
    "COMPOUND": "Cc1ccccc1NC(=O)C(=O)CC(=O)C1CCOC1=O (stereo unspecified)",
    "TGI": "> 100 µM"
  },
  {
    "COMPOUND": "COc1cc2oc(-c3cccc(C(=O)Nc4ccc(C)cc4)c3)cc(=O)c2c(OC)c1OC",
    "TGI": "> 100 µM"
  },
  {
    "COMPOUND": "CC(C(=O)O)C1Nc2ccccc2NC1=O (stereo unspecified)",
    "TGI": "> 100 µM"
  },
  {
    "COMPOUND": "CNC1=CC(=O)C2=C(C1=O)C1C3=C(C(=O)C(Br)=C(OC)C3=O)C2c2ccccc21 (stereo unspecified)",
    "TGI": "> 50 µM"
  },
  {
    "COMPOUND": "C[C@@H]1CC[C@@H]2[C@@H]1[C@H](OC(=O)c1ccc3ccccc3c1)[C@]1(C3CCCCC3)C[C@@H](OC(=O)CO)[C@@]2(C)O1",
    "TGI": "26.5 µM"
  },
  {
    "COMPOUND": "O=C(Nc1nc(-c2ccccc2)cs1)c1cc(O)c(O)c(O)c1",
    "TGI": "> 100 µM"
  },
  {
    "COMPOUND": "O=c1oc2c(cc1-c1ccccc1)C(O)Oc1ccccc1-2 (stereo unspecified)",
    "TGI": "> 100 µM"
  },
  {
    "COMPOUND": "Cc1ccc(N(/C=C/C(=O)C(F)(F)F)CC(=O)c2ccc(Cl)c(Cl)c2)cc1",
    "TGI": "27.1 µM"
  },
  {
    "COMPOUND": "O=C1O/C(=C(/Cl)c2c3ccccc3cc3ccccc23)c2ccccc21",
    "TGI": "69.9 µM"
  },
  {
    "COMPOUND": "COc1cc(OC)c2nc(C)c3c(c2c1)OCC3",
    "TGI": "> 100 µM"
  },
  {
    "COMPOUND": "C=C(CN(C)Cc1ccccc1)c1ccc(C(=O)Nc2ccccc2N)cc1",
    "TGI": "14.4 µM"
  },
  {
    "COMPOUND": "C/C(CC(=O)Nc1ccccc1)=N\\NC(N)=S",
    "TGI": "> 100 µM"
  },
  {
    "COMPOUND": "O=C1[C@@H]2C(c3ccncc3)=NO[C@@H]2C(=O)N1c1ccc(Cc2ccc(N3C(=O)[C@H]4C(c5ccncc5)=NO[C@H]4C3=O)cc2)cc1",
    "TGI": "> 100 µM"
  },
  {
    "COMPOUND": "COc1cc2c(c(OC)c1OC)C(=O)c1c-2n(CCCN=[N+]=[N-])c(=O)c2cc([N+](=O)[O-])ccc12",
    "TGI": "> 100 µM"
  }
]
